The reported measurements were obtained from patent US20220204497A1.

Tested on: A549 cells
Assay: Cell viability by MTT method in A549 cells
Assay type: cell-based
Set-up: concentration or dose not given beside the values
Conditions: 72 hours treatment
Class (required): determined from Cell Viability (% inhibition) (A549); valid ranges are low band (below 50%), middle band (50% to below 90%), high band (90% or more)

Task: Class for `Cc1ccc(S(=O)(=O)N[C@@H](Cc2cn(S(=O)(=O)c3ccc(C)cc3)cn2)C(=O)Nc2ccc(N3CCOCC3)cc2)cc1` ?
Result: low band

Task: Class for `Cc1ccc(S(=O)(=O)N[C@@H](Cc2c[nH]c3ccccc23)C(=O)Nc2nc(-c3ccc(C(F)(F)F)cc3)cs2)cc1` ?
Result: middle band

Task: Class for `CC(C)C[C@H](NS(=O)(=O)c1ccc(C(F)(F)F)cc1)C(=O)Nc1ccc(N2CCOCC2)cc1` ?
Result: middle band

Task: Class for `Cc1ccc(S(=O)(=O)N[C@@H](Cc2c[nH]c3ccccc23)C(=O)NCCc2ccc(Cl)cc2)cc1` ?
Result: high band

Task: Class for `Cc1ccc(S(=O)(=O)N[C@@H](Cc2c[nH]c3ccccc23)C(=O)NNC(=O)C23CC4CC(CC(C4)C2)C3)cc1` ?
Result: middle band

Task: Class for `O=C(Nc1ccc(N2CCOCC2)cc1)[C@H](Cc1c[nH]c2ccccc12)NS(=O)(=O)c1ccc(C(F)(F)F)nc1` ?
Result: middle band

Task: Class for `O=C(Nc1nccs1)[C@H](Cc1c[nH]c2ccccc12)NS(=O)(=O)c1ccc(Br)cc1` ?
Result: low band

Task: Class for `CC(C)C[C@H](NC(=O)c1ccc2c(c1)OCO2)C(=O)OCc1ccccc1` ?
Result: middle band

Task: Class for `Cc1ccc(S(=O)(=O)N[C@@H](CC(C)C)C(=O)Nc2nc(-c3ccc(F)cc3Br)cs2)cc1` ?
Result: high band

Task: Class for `CC(C)C[C@H](NS(=O)(=O)c1cccc([N+](=O)[O-])c1)C(=O)N1CCOCC1` ?
Result: low band

Task: Class for `Cc1ccc(S(=O)(=O)N[C@@H](CC(C)C)C(=O)Nc2nc(-c3ccc(F)cc3)cs2)cc1` ?
Result: high band

Task: Class for `CC(C)C[C@H](NC(=O)c1ccc(C(C)(C)C)cc1)C(=O)OCc1ccccc1` ?
Result: low band

Task: Class for `CC(C)C[C@H](NS(=O)(=O)c1ccc2ccccc2c1)C(=O)Nc1ccc(N2CCOCC2)cc1` ?
Result: low band

###

Tested on: A549 cells
Assay: Cell viability by MTT method in A549 cells
Format: cell-based
Design: concentration or dose not given beside the values
Settings: 72 hours treatment
Classify by measured Cell Viability (% inhibition) (A549): true if it is equal to or exceeds 50%, false if it is smaller.

Task: Answer whether Cell Viability (% inhibition) (A549) of `Cc1ccc(S(=O)(=O)N[C@@H](CCCCNC(=O)OCc2ccccc2)C(=O)Nc2ccc(N3CCOCC3)cc2)cc1` is greater than or equal to 50%.
Result: true

Task: Answer whether Cell Viability (% inhibition) (A549) of `O=C(Nc1ccc(N2CCOCC2)cc1)[C@H](Cc1c[nH]c2ccccc12)NS(=O)(=O)c1ccc([N+](=O)[O-])cc1` is greater than or equal to 50%.
Result: true

Task: Answer whether Cell Viability (% inhibition) (A549) of `COc1ccc(-c2cc(NC(=O)[C@H](CC(C)C)NS(=O)(=O)c3ccc(C)cc3)no2)cc1` is greater than or equal to 50%.
Result: false

Task: Answer whether Cell Viability (% inhibition) (A549) of Cc1ccc(S(=O)(=O)N[C@@H](Cc2c[nH]c3ccccc23)C(=O)NC(Cc2c[nH]c3ccccc23)C(=O)O)cc1 (stereo partly shown) is greater than or equal to 50%.
Result: false

Task: Answer whether Cell Viability (% inhibition) (A549) of `O=C(NNC(=O)C12CC3CC(CC(C3)C1)C2)[C@H](Cc1c[nH]c2ccccc12)NS(=O)(=O)c1ccc(Br)cc1` is greater than or equal to 50%.
Result: true

Task: Answer whether Cell Viability (% inhibition) (A549) of `Cc1ccc(S(=O)(=O)N[C@@H](Cc2c[nH]c3ccccc23)C(=O)Nc2nc(-c3ccc(N4CCOCC4)cc3)cs2)cc1` is greater than or equal to 50%.
Result: true

Task: Answer whether Cell Viability (% inhibition) (A549) of `COc1ccc(N2CCN(C(=O)[C@H](Cc3c[nH]c4ccccc34)NS(=O)(=O)c3ccc(C)cc3)CC2)cc1` is greater than or equal to 50%.
Result: false
